Test system: MCF-7
Assay: MTT cytotoxicity assay, MCF-7
Assay type: cell-based
Conditions: IC50 MRC-5 / IC50 MCF-7
measured attribute: Selectivity index, MCF-7
# answer = number (no unit)

The examples below pair each entry with its known result.
COc1ccc(NC(=O)Nc2c(C#N)c3n(c2C(=O)Nc2ccc(C)cc2)CCC3)cc1 [Compound 17b]	2.18
Cc1ccc(NC(=O)c2c(NC(=O)Nc3cccc4ccccc34)c(C#N)c3n2CCC3)cc1 [Compound 19b]	3.50
COc1ccc(NC(=O)Nc2c(C#N)c3n(c2C(=O)Nc2ccc(Cl)cc2)CCC3)cc1 [Compound 17c]	1.13
N#Cc1c(NC(=S)Nc2cccc3ccccc23)c(C(=O)Nc2ccc(Cl)cc2)n2c1CCC2 [Compound 20c]	1.66
CCCCCCNC(=O)Nc1c(C#N)c2n(c1C(=O)Nc1ccccc1)CCC2 [Compound 16a]	20.10

In: Would you kindly share the measured Selectivity index, MCF-7 for N#Cc1c(NC(=S)Nc2cccc3ccccc23)c(C(=O)Nc2ccccc2)n2c1CCC2 [Compound 20a] ?
Out: 1.02

In: Would you kindly share the measured Selectivity index, MCF-7 for N#Cc1c(NC(=O)Nc2ccc(F)cc2)c(C(=O)Nc2ccc(Cl)cc2)n2c1CCC2 [Compound 18c] ?
Out: 0.34

In: Would you kindly share the measured Selectivity index, MCF-7 for COc1ccc(NC(=O)Nc2c(C#N)c3n(c2C(=O)Nc2ccccc2)CCC3)cc1 [Compound 17a] ?
Out: 2.56

----------
Tested on: MCF-7
Assay: MTT cytotoxicity assay, MCF-7
Type: cell-based
Settings: IC50 MRC-5 / IC50 MCF-7
Below, each of the compounds is paired with its reported Selectivity index, MCF-7 value.
# answer = number (no unit)

N#Cc1c(NC(=O)Nc2cccc3ccccc23)c(C(=O)Nc2ccccc2)n2c1CCC2 [Compound 19a]	6.68

In: Would you kindly share the measured Selectivity index, MCF-7 for Cc1ccc(NC(=O)c2c(NC(=O)Nc3ccc(F)cc3)c(C#N)c3n2CCC3)cc1 [Compound 18b] ?
Out: 7.68

In: Would you kindly share the measured Selectivity index, MCF-7 for N#Cc1c(NC(=O)Nc2cccc3ccccc23)c(C(=O)Nc2ccc(Cl)cc2)n2c1CCC2 [Compound 19c] ?
Out: 2.11

In: Would you kindly share the measured Selectivity index, MCF-7 for N#Cc1c(NC(=O)Nc2ccc(F)cc2)c(C(=O)Nc2ccccc2)n2c1CCC2 [Compound 18a] ?
Out: 0.99

----------
Test system: HT29
Experiment: MTT cytotoxicity assay, HT29
Type: cell-based
Settings: IC50 MRC-5 / IC50 HT29
measured attribute: Selectivity index, HT29
# answer = number (no unit)

The examples below pair each entry with its known result.
CCCCCCNC(=O)Nc1c(C#N)c2n(c1C(=O)Nc1ccc(C)cc1)CCC2 [Compound 16b]	1.70
CCCCCCNC(=O)Nc1c(C#N)c2n(c1C(=O)Nc1ccccc1)CCC2 [Compound 16a]	13.95
CCCCCCNC(=O)Nc1c(C#N)c2n(c1C(=O)Nc1ccc(Cl)cc1)CCC2 [Compound 16c]	0.24

In: Would you kindly share the measured Selectivity index, HT29 for N#Cc1c(NC(=O)Nc2cccc3ccccc23)c(C(=O)Nc2ccccc2)n2c1CCC2 [Compound 19a] ?
Out: 13.35

----------
Below, each of the compounds is paired with its reported Selectivity index, HT29 value.
Test system: HT29
Assay: MTT cytotoxicity assay, HT29
Type: cell-based
Details: IC50 MRC-5 / IC50 HT29
# answer = number (no unit)

The examples below pair each entry with its known result.
N#Cc1c(NC(=O)Nc2cccc3ccccc23)c(C(=O)Nc2ccc(Cl)cc2)n2c1CCC2 [Compound 19c]	1.05
N#Cc1c(NC(=O)Nc2ccc(F)cc2)c(C(=O)Nc2ccc(Cl)cc2)n2c1CCC2 [Compound 18c]	0.07
N#Cc1c(NC(=O)Nc2ccc(F)cc2)c(C(=O)Nc2ccccc2)n2c1CCC2 [Compound 18a]	1.17

# context switch: different compound, same Selectivity index, HT29
In: Would you kindly share the measured Selectivity index, HT29 for N#Cc1c(NC(=S)Nc2cccc3ccccc23)c(C(=O)Nc2ccccc2)n2c1CCC2 [Compound 20a] ?
Out: 0.60

----------
System: HT29
Test: MTT cytotoxicity assay, HT29
Assay type: cell-based
Details: Homo sapiens, HT-29, 72 h, read-out: IC50 ± SD, HT29
API: label(entry) gives 1 (yes) if the entry's IC50 is strictly smaller than 2000 nM; on equality or larger values it gives 0 (no).

CCCCCCNC(=O)Nc1c(C#N)c2n(c1C(=O)Nc1ccc(Cl)cc1)CCC2 [Compound 16c]	0 (no)

In: Just wondering, is IC50 of Cc1ccc(NC(=O)c2c(NC(=O)Nc3cccc4ccccc34)c(C#N)c3n2CCC3)cc1 [Compound 19b] below 2000 nM?
Out: 1 (yes)

In: Just wondering, is IC50 of N#Cc1c(NC(=O)Nc2ccc(F)cc2)c(C(=O)Nc2ccc(Cl)cc2)n2c1CCC2 [Compound 18c] below 2000 nM?
Out: 1 (yes)

In: Just wondering, is IC50 of N#Cc1c(NC(=O)Nc2cccc3ccccc23)c(C(=O)Nc2ccc(Cl)cc2)n2c1CCC2 [Compound 19c] below 2000 nM?
Out: 0 (no)

----------
Below, each of the molecules is paired with its reported Selectivity index, HT29 value.
Test system: HT29
Assay: MTT cytotoxicity assay, HT29
Format: cell-based
Settings: IC50 MRC-5 / IC50 HT29
# answer = number (no unit)

The examples below pair each entry with its known result.
Cc1ccc(NC(=O)c2c(NC(=S)Nc3cccc4ccccc34)c(C#N)c3n2CCC3)cc1 [Compound 20b]	0.52
COc1ccc(NC(=O)Nc2c(C#N)c3n(c2C(=O)Nc2ccc(C)cc2)CCC3)cc1 [Compound 17b]	4.31
Cc1ccc(NC(=O)c2c(NC(=O)Nc3cccc4ccccc34)c(C#N)c3n2CCC3)cc1 [Compound 19b]	2.26
N#Cc1c(NC(=S)Nc2cccc3ccccc23)c(C(=O)Nc2ccc(Cl)cc2)n2c1CCC2 [Compound 20c]	0.80

In: Would you kindly share the measured Selectivity index, HT29 for Cc1ccc(NC(=O)c2c(NC(=O)Nc3ccc(F)cc3)c(C#N)c3n2CCC3)cc1 [Compound 18b] ?
Out: 0.15

In: Would you kindly share the measured Selectivity index, HT29 for CS(=O)(=O)CCNCc1ccc(-c2ccc3ncnc(Nc4ccc(OCc5cccc(F)c5)c(Cl)c4)c3c2)o1 [Lapatinib, lapatinib, reference compound] ?
Out: 0.54

In: Would you kindly share the measured Selectivity index, HT29 for COc1ccc(NC(=O)Nc2c(C#N)c3n(c2C(=O)Nc2ccc(Cl)cc2)CCC3)cc1 [Compound 17c] ?
Out: 9.05

In: Would you kindly share the measured Selectivity index, HT29 for COc1ccc(NC(=O)Nc2c(C#N)c3n(c2C(=O)Nc2ccccc2)CCC3)cc1 [Compound 17a] ?
Out: 0.43

----------
UniProt P24941 pIC50 data
Scale: pIC50 equals -log10([C]), with [C] in mol/L.

The examples below pair each entry with its known result.
N#Cc1c(NC(=O)Nc2cccc3ccccc23)c(C(=O)Nc2ccccc2)n2c1CCC2 [Compound 19a]	7.59
N#Cc1c(NC(=S)Nc2cccc3ccccc23)c(C(=O)Nc2ccccc2)n2c1CCC2 [Compound 20a]	7.11

# context switch: different compound, same pIC50
In: Record Cc1ccc(NC(=O)c2c(NC(=O)Nc3ccc(F)cc3)c(C#N)c3n2CCC3)cc1 [Compound 18b] : what is its pIC50 with UniProt P24941?
Out: 6.94

----------
Test system: HT29
Assay: MTT cytotoxicity assay, HT29
Assay type: cell-based
Conditions: Homo sapiens, HT-29, 72 h, read-out: IC50 ± SD, HT29
Below, each of the molecules is paired with its reported pIC50 value.
Scale: pIC50 equals -log10([C]), with [C] in mol/L.

CS(=O)(=O)CCNCc1ccc(-c2ccc3ncnc(Nc4ccc(OCc5cccc(F)c5)c(Cl)c4)c3c2)o1 [Lapatinib, lapatinib, reference compound]	4.90

In: Would you kindly share the measured pIC50 for COc1ccc(NC(=O)Nc2c(C#N)c3n(c2C(=O)Nc2ccc(Cl)cc2)CCC3)cc1 [Compound 17c] ?
Out: 6.38

In: Would you kindly share the measured pIC50 for CCCCCCNC(=O)Nc1c(C#N)c2n(c1C(=O)Nc1ccccc1)CCC2 [Compound 16a] ?
Out: 6.07

In: Would you kindly share the measured pIC50 for N#Cc1c(NC(=S)Nc2cccc3ccccc23)c(C(=O)Nc2ccc(Cl)cc2)n2c1CCC2 [Compound 20c] ?
Out: 5.44

In: Would you kindly share the measured pIC50 for COc1ccc(NC(=O)Nc2c(C#N)c3n(c2C(=O)Nc2ccccc2)CCC3)cc1 [Compound 17a] ?
Out: 5.28

In: Would you kindly share the measured pIC50 for COc1ccc(NC(=O)Nc2c(C#N)c3n(c2C(=O)Nc2ccc(C)cc2)CCC3)cc1 [Compound 17b] ?
Out: 5.84

In: Would you kindly share the measured pIC50 for Cc1ccc(NC(=O)c2c(NC(=O)Nc3ccc(F)cc3)c(C#N)c3n2CCC3)cc1 [Compound 18b] ?
Out: 5.01

In: Would you kindly share the measured pIC50 for N#Cc1c(NC(=S)Nc2cccc3ccccc23)c(C(=O)Nc2ccccc2)n2c1CCC2 [Compound 20a] ?
Out: 6.14

Value source: paper PMC7594867
